- PROCEDURE_DETAILS: Cytotoxicity against […] cells after 4 hrs by MTT assay
- Assay type: functional, cell-based
MEASURED_ENDPOINT: IC50

Below, each entry is followed by its recorded IC50 result.
SMILES_REPR	IC50
N[C@H]1CCN(c2c(F)cc3c(=O)c(C(=O)O)cn4c3c2Oc2c-4ccc3c2ccc2ccccc23)C1	2800 nM
COc1cccc2c1C(=O)c1c(O)c3c(c(O)c1C2=O)C[C@@](O)(C(=O)CO)C[C@@H]3O[C@H]1C[C@H](N)[C@H](O)[C@H](C)O1	320 nM

We next turn to a different molecule, shown below.
[Q] If you can, please state the reported IC50 value of N[C@@H]1CCN(c2c(F)cc3c(=O)c(C(=O)O)cn4c3c2Oc2c-4ccc3c2ccc2ccccc23)C1 .
[A] 500 nM

* * *

- PROCEDURE_DETAILS: Half life in human
- Assay type: ADME
MEASURED_ENDPOINT: half-life (min)
Report as a plain number; the unit min is understood.

[Q] Return reported half-life; argument: COc1cccc2c1C(=O)c1c(O)c3c(c(O)c1C2=O)C[C@@](O)(C(=O)CO)C[C@@H]3O[C@H]1C[C@H](N)[C@H](O)[C@H](C)O1
[A] 4
